Task for the reader: assign each of the following molecules its reported Activity.
target: Polyunsaturated fatty acid 5-lipoxygenase (Homo sapiens) (UniProt P09917); assay: Inhibition of recombinant human 5-Lipoxygenase expressed in Escherichia coli lysate assessed as residual activity using arachidonic acid as substrate at 10 uM after 10 mins by HPLC analysis
Sequence (P09917 whole entry): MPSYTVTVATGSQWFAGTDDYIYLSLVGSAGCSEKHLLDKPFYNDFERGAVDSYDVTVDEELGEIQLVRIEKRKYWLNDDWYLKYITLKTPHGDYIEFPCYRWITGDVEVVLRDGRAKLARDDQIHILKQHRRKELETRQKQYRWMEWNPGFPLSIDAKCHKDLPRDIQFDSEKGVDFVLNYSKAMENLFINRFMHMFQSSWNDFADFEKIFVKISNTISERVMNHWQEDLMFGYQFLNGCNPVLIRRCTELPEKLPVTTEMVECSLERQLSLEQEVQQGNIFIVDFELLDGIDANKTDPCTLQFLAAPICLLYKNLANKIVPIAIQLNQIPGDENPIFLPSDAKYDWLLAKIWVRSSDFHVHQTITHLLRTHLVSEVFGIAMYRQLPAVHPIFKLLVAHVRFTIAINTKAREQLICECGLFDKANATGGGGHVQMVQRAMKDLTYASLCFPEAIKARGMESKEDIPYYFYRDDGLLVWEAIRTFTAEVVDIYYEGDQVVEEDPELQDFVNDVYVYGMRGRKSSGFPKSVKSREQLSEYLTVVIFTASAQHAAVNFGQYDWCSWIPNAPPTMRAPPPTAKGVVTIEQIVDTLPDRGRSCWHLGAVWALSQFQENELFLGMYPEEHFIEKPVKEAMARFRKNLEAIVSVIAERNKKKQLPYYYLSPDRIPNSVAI
Reply numerically in %, unit not repeated.

Recorded Activity of CC(C)(C)c1ccc(CN2CCN(C(=O)CCc3cc(-c4ccc(F)cc4)n(-c4ccc(Cl)nn4)n3)CC2)cc1 , please. 103

Recorded Activity of CCOC(=O)C1CCN(C(=O)CCc2cc(-c3ccc(C(F)(F)F)cc3)n(-c3ccc(Cl)nn3)n2)CC1 , please. 84

Recorded Activity of CCOC(=O)C1CCN(C(=O)CCc2cc(-c3ccc(C)cc3)n(-c3ccccc3)n2)CC1 , please. 79.5

Attribution: ChEMBL document CHEMBL1828531
